- Test system: U2OS
- assay_method_text: cell viability relative to DMSO; higher = less toxic
- recorded_conditions: 72 h; 10 nM
Where a name gives a salt, the structure may show the parent alone.
Listed here: items and their measured cell viability.

compound	cell viability (%)
CCNC1=Nc2ccc(Cl)cc2C(C)(c2ccccc2)O1 (stereo unspecified)	96.9
C[C@]12CCC(=O)C=C1CC[C@@H]1[C@@H]2CC[C@@]2(C)[C@H]1CC[C@]2(O)C(=O)CO	95.2
NC(=O)c1ccc(-c2nc(-c3ccccn3)c(-c3ccc4c(c3)OCO4)[nH]2)cc1	96.6
COc1cccc2c1C(=O)c1c(O)c3c(c(O)c1C2=O)C[C@@](O)(C(=O)CO)C[C@@H]3O[C@H]1C[C@H](N)[C@@H](O)[C@H](C)O1 [Epirubicin Hydrochloride]	99.7
OCCC#Cc1nc(-c2ccc(F)cc2)c(-c2ccncc2)n1CCCc1ccccc1	92
COc1cc2c(cc1O)C(CCc1ccc(Cl)cc1)N(C)CC2 (stereo unspecified)	96.2
C/C(=C\c1ccc(C(=O)O)cc1)c1ccc2c(c1)C(C)(C)CCC2(C)C	99.2
C[C@@H](CN)CC(=O)O	101
NS(=O)(=O)c1ccc(-n2nc(C(F)(F)F)cc2-c2ccc(Cl)cc2)cc1	96
Cc1ccc2c(N3CCN(CCc4cccc(N5CCNC5=O)c4)CC3)cccc2n1	101
Cc1ccc(-c2cc(C(F)(F)F)nn2-c2ccc(S(N)(=O)=O)cc2)cc1	99.6
O=[N+]([O-])c1cccc2cn[nH]c12	102
O=C(O)c1cc(C(=O)O)c(C(=O)N(Cc2cccc(Oc3ccccc3)c2)[C@H]2CCCc3ccccc32)cc1C(=O)O	94.4
CC(CNS(=O)(=O)C(C)C)c1ccc(-c2ccc(C#N)cc2)cc1 (stereo unspecified)	102
COc1cc2c(cc1Cc1cccc(Cl)c1F)c(=O)c(C(=O)O)cn2[C@H](CO)C(C)C	95.7
O=C(NCc1ccncc1)C12CC3CC(C1)CC(c1ccc(Cl)cc1)(C3)C2	99.2
CCCC[C@@H](NC(=O)[C@@H](Cc1cn(C(=O)OC)c2ccccc12)NC(=O)[C@H](CC(C)(C)C)NC(=O)N1[C@H](C)CCC[C@@H]1C)C(=O)O	90.1
c1ccc2c(-c3cnn4cc(-c5ccc(N6CCNCC6)cc5)cnc34)ccnc2c1	94.2
CC(C)[C@H](NS(=O)(=O)c1ccc(-c2ccc(Br)cc2)cc1)C(=O)O	97.5
COc1ccc2cccc(CCNC(C)=O)c2c1	99
C=C[C@]1(C)C[C@@H](OC(=O)CS[C@@H]2C[C@H]3CC[C@@H](C2)N3C)[C@]2(C)[C@H](C)CC[C@]3(CCC(=O)[C@H]32)[C@@H](C)[C@@H]1O	98.4
NC(N)=Nc1nc(CSCC/C(N)=N/S(N)(=O)=O)cs1	95.4
CCOC1O[C@H]([C@@H](COCc2ccccc2)OCc2ccccc2)[C@H](OCc2ccccc2)[C@H]1O (stereo partly specified) [tribenoside]	96.3
CCCc1c(-c2ccc(O)cc2)nn(-c2ccc(O)cc2)c1-c1ccc(O)cc1	102
O=C(NN1C(=O)[C@@H]2[C@@H]3C=C[C@@H]([C@H]4C[C@@H]34)[C@@H]2C1=O)c1ccc(C(F)(F)F)cc1	107
CN(C)CCc1c[nH]c2ccc(Cn3cncn3)cc12	106
O=C1Nc2ccccc2C2(CCN(CCc3ccc(C(F)(F)F)cc3)CC2)O1	94.9
C[N+](C)(C)CCCCCC[N+](C)(C)C	102
CN1c2c([nH]c(N)nc2=O)NC[C@@H]1CNc1ccc(C(=O)N[C@@H](CCC(=O)O)C(=O)O)cc1	100
Cc1ccc2c(=O)c3cccc(CC(=O)O)c3oc2c1C	97.4
C[C@]12CC[C@@H]3c4ccc(OC(=O)N(CCCl)CCCl)cc4CC[C@H]3[C@@H]1CC[C@@H]2OP(=O)(O)O [estramustine-phosphate]	100
CS(=O)(=O)Nc1ccc(-c2coc3cc(OCc4cccc(C(=O)O)c4)ccc3c2=O)cc1	99.1
Nc1nc(=O)n([C@H]2C[C@H](O)[C@@H](CO)O2)cc1F	106
CC(=O)Nc1ccc(Cc2ccc(NC(C)=O)cc2)cc1	96.6
Nc1sc2c(c1C(=O)c1ccc(Cl)cc1)CCCC2	101
O=C(NCCCN1CCC2(CC1)OCc1ccccc12)[C@H]1CCCN1Cc1ccccc1	105

Hey, just so you know, these numbers are from the supplement of paper PMC13380429.
